# conditionContext: PAMPA
Where a SMILES comes first, the peptide text is derived from it. [ ]: non-standard residue; d: D form. NMeF = CN[C@@H](Cc1ccccc1)C(=O)O; dNMeF = CN[C@H](Cc1ccccc1)C(=O)O; NMeL = CN[C@@H](CC(C)C)C(=O)O; dNMeL = CN[C@H](CC(C)C)C(=O)O; dNMeA = CN[C@H](C)C(=O)O
metric: PAMPA_R3

Below: 6 molecules and their reported PAMPA_R3.
molecule | PAMPA_R3
CC[C@@H](C)[C@H]1NC(=O)[C@@H](Cc2ccccc2)NC(=O)[C@@H]2CCCN2C(=O)[C@@H]([C@H](C)CC)NC(=O)[C@@H](Cc2ccccc2)NC(=O)[C@@H]2CCCN2C1=O [Design D6.1, DILE PRO DPHE DILE PRO DPHE] (cyclo(P[dF][dI]P[dF][dI])) | 39.2 nm/s
CC[C@@H](C)[C@H]1NC(=O)[C@@H](Cc2ccccc2)N(C)C(=O)[C@@H]2CCCN2C(=O)[C@@H]([C@H](C)CC)NC(=O)[C@@H](Cc2ccccc2)N(C)C(=O)[C@@H]2CCCN2C1=O [Design D6.2, DILE PRO *DPHE DILE PRO *DPHE] (cyclo(P[dNMeF][dI]P[dNMeF][dI])) | 115 nm/s
CC[C@H](C)[C@@H]1NC(=O)[C@@H]2CCCN2C(=O)[C@H]2CCCN2C(=O)[C@@H](CC(C)C)NC(=O)[C@@H](CC(C)C)N(C)C(=O)[C@@H]2CCCN2C(=O)[C@H](Cc2ccccc2)N(C)C(=O)[C@@H](Cc2ccc(O)cc2)NC1=O [Design D8.13, PRO ILE DTYR *PHE PRO *DLEU DLEU DPRO] (cyclo(I[dY][NMeF]P[dNMeL][dL][dP]P)) | BQL
CC(C)[C@H]1NC(=O)[C@@H]2CCCN2C(=O)[C@@H](C)NC(=O)[C@@H](Cc2ccccc2)NC(=O)[C@@H]2CCCN2C(=O)[C@H](Cc2ccccc2)NC1=O [Design D6.7, DPHE DALA PRO DVAL PHE PRO] (cyclo(FP[dF][dA]P[dV])) | 3.67 nm/s
CC(C)C[C@@H]1NC(=O)[C@@H](Cc2ccccc2)NC(=O)[C@@H]2CCCN2C(=O)[C@H]2CCCN2C(=O)[C@@H]2CCCN2C(=O)[C@H](C)NC(=O)[C@H](Cc2ccccc2)N(C)C(=O)[C@H]2CCCN2C(=O)[C@@H](CC(C)C)NC(=O)[C@@H](C(C)C)NC1=O [Design D10.54] (cyclo([dF]L[dV][dL][dP][NMeF]AP[dP]P)) | BQL
CC[C@@H](C)[C@H]1NC(=O)[C@H](C(C)C)NC(=O)[C@H](Cc2ccccc2)NC(=O)[C@H](C)NC(=O)[C@@H]2CCCN2C(=O)[C@H]2CCCN2C(=O)[C@H]2CCCN2C(=O)[C@H](CC(C)C)N(C)C(=O)[C@@H](C)N(C)C(=O)[C@H](C(C)C)NC1=O [Design D10.38] (cyclo(AFV[dI]V[dNMeA][NMeL][dP][dP]P)) | BQL

Task: Identify measured PAMPA_R3 corresponding to CC[C@@H](C)[C@H]1NC(=O)[C@H](CC(C)C)NC(=O)[C@@H](CC(C)C)NC(=O)[C@H](C(C)C)NC(=O)[C@@H]2CCCN2C(=O)[C@H](CC(C)C)N(C)C(=O)[C@@H](CC(C)C)NC(=O)[C@H](Cc2ccccc2)N(C)C(=O)[C@H]2CCCN2C1=O [Design D9.38] (cyclo(L[dI][dP][NMeF][dL][NMeL]PV[dL]))
Output: BQL

* * *

# methodSummary: in vitro
# conditionContext: PAMPA, PAMPA_Papp_Avg
Where a SMILES comes first, the peptide text is derived from it. [ ]: non-standard residue; d: D form. NMeF = CN[C@@H](Cc1ccccc1)C(=O)O; NMeL = CN[C@@H](CC(C)C)C(=O)O; dNMeL = CN[C@H](CC(C)C)C(=O)O; NMeA = CN[C@@H](C)C(=O)O; dNMeA = CN[C@H](C)C(=O)O; Sar = CNCC(=O)O
Please enter 1 (yes) where Papp is greater than or equal to 3 ×10⁻⁶ cm/s, and 0 (no) where it is lower.

Task: Confirm if Papp reported for the compound CC[C@H](C)[C@@H]1NC(=O)[C@@H]2CCCN2C(=O)CN(C)C(=O)[C@@H](CC(C)C)NC(=O)[C@@H](CC(C)C)N(C)C(=O)[C@@H]2CCCN2C(=O)[C@H](Cc2ccccc2)N(C)C(=O)[C@@H](Cc2ccccc2)NC1=O [Design D8.15, PRO ILE DPHE*PHE PRO *DLEU DLEU *GLY] (cyclo(I[dF][NMeF]P[dNMeL][dL][Sar]P)) is 3 ×10⁻⁶ cm/s or above.
Output: 0 (no)

Task: Reported Papp reaches at least 3 ×10⁻⁶ cm/s for CC(C)C[C@@H]1NC(=O)[C@@H]2CCCN2C(=O)[C@H]2CCCN2C(=O)[C@@H](C)N(C)C(=O)[C@@H](CC(C)C)N(C)C(=O)[C@H](C(C)C)NC(=O)[C@@H](C)N(C)C(=O)[C@H]2CCCN2C(=O)[C@@H]2CCCN2C1=O [Design D9.22] (cyclo(LP[dP][dNMeA]V[dNMeL][dNMeA][dP]P)) ?
Output: 0 (no)

Task: Given the entry CC[C@@H](C)[C@H]1NC(=O)[C@H](C)N(C)C(=O)[C@H]([C@@H](C)CC)NC(=O)[C@H]2CCCN2C(=O)[C@H](CC(C)C)N(C)C(=O)[C@@H](C(C)C)NC(=O)[C@H](C)N(C)C(=O)[C@H]([C@@H](C)CC)NC(=O)[C@@H](CC(C)C)NC(=O)[C@@H]2CCCN2C(=O)[C@H]2CCCN2C1=O [Design D11.10] (cyclo([dL]I[NMeA][dV][NMeL][dP]I[NMeA][dI][dP]P)) , answer whether its Papp meets or surpasses 3 ×10⁻⁶ cm/s.
Output: 0 (no)

Task: Papp >= 3 ×10⁻⁶ cm/s for CC[C@@H](C)[C@H]1NC(=O)[C@@H]2CCCN2C(=O)[C@@H]([C@H](C)CC)NC(=O)[C@@H](C)N(C)C(=O)[C@H](CC(C)C)NC(=O)[C@@H](Cc2ccccc2)NC(=O)[C@H](CC(C)C)N(C)C(=O)[C@H]2CCCN2C(=O)[C@@H](CC(C)C)NC(=O)[C@H](CC(C)C)NC(=O)[C@H]2CCCN2C1=O [Design D11.1] (cyclo(L[dL][dP][NMeL][dF]L[dNMeA][dI]P[dI][dP])) ?
Output: 1 (yes)

Task: Record CC[C@@H](C)[C@H]1NC(=O)[C@H](CC(C)C)N(C)C(=O)[C@H]2CCCN2C(=O)[C@H](CC(C)C)NC(=O)[C@H](Cc2ccccc2)N(C)C(=O)[C@H](CC(C)C)N(C)C(=O)[C@@H](C(C)C)NC(=O)[C@H](C)NC(=O)[C@H]2CCCN2C(=O)[C@@H]2CCCN2C1=O [Design D10.17.p2] ; criterion: Papp no lower than 3 ×10⁻⁶ cm/s. Met?
Output: 0 (no)

* * *

# conditionContext: PAMPA
Where a SMILES comes first, the peptide text is derived from it. [ ]: non-standard residue; d: D form. dNMeF = CN[C@H](Cc1ccccc1)C(=O)O; dNMeL = CN[C@H](CC(C)C)C(=O)O
metric: PAMPA_R1

compound | metric | reportedResult
CC(C)[C@@H]1C(=O)N[C@@H](Cc2ccccc2)C(=O)N2CCC[C@H]2C(=O)N(C)[C@H](Cc2ccccc2)C(=O)N[C@H](C)C(=O)N2CCC[C@H]2C(=O)N1C (single isomer, unassigned) [Design D6.8.p2, *DPHE DALA PRO *DVAL PHE PRO] | PAMPA_R1 | 1.92 ×10⁻⁶ cm/s
CC[C@H](C)[C@@H]1NC(=O)[C@H]2CCCN2C(=O)[C@@H]2CCCN2C(=O)[C@H](CC(C)C)NC(=O)[C@@H](C(C)C)NC(=O)[C@@H](CC(C)C)N(C)C(=O)[C@@H]2CCCN2C1=O [Design D7.1, PRO *DLEU DVAL LEU PRO DPRO ILE] (cyclo(IP[dNMeL][dV]LP[dP])) | PAMPA_R1 | 2.76 ×10⁻⁶ cm/s
CC(C)C[C@H]1NC(=O)[C@@H]2CCCN2C(=O)[C@@H]2CCCN2C(=O)[C@@H](C)NC(=O)[C@@H](Cc2ccccc2)N(C)C(=O)[C@H]2CCCN2C1=O [Design D6.4, DPRO *DPHE DALA PRO PRO DLEU] (cyclo(PP[dL][dP][dNMeF][dA])) | PAMPA_R1 | 18.5 ×10⁻⁶ cm/s
CC(C)[C@@H]1NC(=O)[C@H](C)NC(=O)[C@H]2CCCN2C(=O)[C@@H](Cc2ccccc2)NC(=O)[C@H]2CCCN2C(=O)[C@@H]2CCCN2C(=O)[C@H](Cc2ccccc2)NC(=O)[C@H](C)NC(=O)[C@H]2CCCN2C1=O [Design D9.36, VAL DPRO ALA PHE PRO DPRO DPHE DPRO ALA] (cyclo(AFP[dP][dF][dP]AV[dP])) | PAMPA_R1 | BQL
